For each record, write down the corresponding Absorbance at 600 nm.
Test system: C. tropicalis
Experiment: Toxicity tests of additional substrates (absorbance at 600 nm)
Assay type: cell-based
Settings: substrate concentration 0.5%, 24 hours, added without solvent
Give bare numbers.

Worked cases, answers included:
| MOLECULE | EXPERIMENTAL_TARGET | Absorbance at 600 nm |
| --- | --- | --- |
| CCCCC(C(=O)O)C(=O)O [Butylmalonic Acid] | C. tropicalis | 27.13 |
| CCCCCCCCC(CO)CCCCCC (centres unmarked) [2-Hexyl-1-decanol] | C. tropicalis | 19.73 |
| CCCC1CCCCC1 [Propylcyclohexane] | C. tropicalis | 34.12 |
| CCCCCOCCCCC [Pentyl Ether, Dipentyl Ether] | C. tropicalis | 1.863 |
| CCCCC1CCCCC1 [Butylcyclohexane] | C. tropicalis | 21.13 |
| CCCCCCCCC(CCCCCC)C(=O)O (centres unmarked) [2-Hexydecanoic acid, 2-hexyldecanoic acid] | C. tropicalis | 35.33 |
| C=CCCCCCCCCCCCCCCCC [1-Octadecene] | C. tropicalis | 36.33 |
| C=CCCCCCCCCCCCCCC [1-Hexadecene] | C. tropicalis | 35.33 |
| CCCCCCCCCCCCCCC(O)CO (centres unmarked) [1,2-Hexadecanediol] | C. tropicalis | 3.033 |
| C=COCCCCCCCCCCCC [Dodecylvinylether] | C. tropicalis | 12.63 |

Consider the additional molecule presented here.
Query: Quickly give me recorded Absorbance at 600 nm for CCCC[S+]([O-])CCCC [Butylsulfoxide, dibutylsulfoxide]
Response: 11.37
